System: MS2 coat protein
assayOverview: apparent KD of MS2 coat protein; designed switch direction (-1 OFF switch, 1 ON switch): 1; higher = weaker reporter binding
assaySetup: Eterna round: R95; input ligand: none
Label scheme for apparent KD of MS2 coat protein: lower than 100 nM is Not satisfied, 100 nM and above is Satisfied.

The following sequences have reported results that may help.
- sequenceData: "AGUCCAGCCUGAGCUGGACAAAAGCAUGUACAUGAGGAUCACCCAUGUCAUGUACAAGCUUUUUGCUCGUAUUAAUA [Mat - hsa-mir-208a - Mod of JL - D30] (puzzle: Sensor for hsa-mir-208a)"
  cat: "Satisfied"
- sequenceData: "UGGAUCUAGGCUUGCCUGGGUCCAUGUUGACAUGAGGAUCACCCAUGUGUAUUUUUUAAGCUUUUUGUUUGUCAACA [JL A Humble Attempt mod 6] (puzzle: Sensor for hsa-mir-208a)"
  cat: "Not satisfied"
- sequenceData: "AGAGAACAUGAGGAUCACCCAUGUGGGAGAAACAUAGGAUAUAGGAGAGAGAGGGAGGAGCUAGAAGGAUGAUGGA [JR_SS1_Sub082] (puzzle: Same State 1)"
  cat: "Satisfied"

In: For this sequence, is measured apparent KD of MS2 coat protein 100 nM or higher? AGUCCAGCGAAAGCUGGACAAAAGCAUGUACAUGAGGAUCACCCAUGUUCAUGUACAAGCUUUUUGCUCGUCUUAAA [Zipper 52 - 13] (puzzle: Sensor for hsa-mir-208a)
Out: Satisfied

In: For this sequence, is measured apparent KD of MS2 coat protein 100 nM or higher? UCCUCAGUUUCACAGGAUAUGCGCUGAGUCACAUGAGGAUCACCCAUGUAGACGGAAAAUGUCGGGCAGAAGGGUGAGGCAUAAA [Diretibe] (puzzle: Same State 2)
Out: Satisfied

In: For this sequence, is measured apparent KD of MS2 coat protein 100 nM or higher? GCAGUACAUGAGGAUCACCCAUGUCUCUAAAGUCGAGGAUAUGGGCAGGUUAUAUCCGAACCAGAAGGCGAGCUGC [SS1 Teenbexe 12] (puzzle: Same State 1)
Out: Satisfied

In: For this sequence, is measured apparent KD of MS2 coat protein 100 nM or higher? AAAAGUUGCGGGCAGGAUAUGUAUUAAAAUACAUGAGGAUCACCCAUGUGCGGGUAUAACACCCGACAGAAGGGCCAAACGCGAC [Mat - Same State 2 - Mod of UCT - D96] (puzzle: Same State 2)
Out: Satisfied

In: For this sequence, is measured apparent KD of MS2 coat protein 100 nM or higher? UGGUAACAUGAGGAUCACCCAUGUCAAAUGAAUCGAGGAUAUGGGAAUUAACAAUAUAAACUAGAAGGCGAAUUUG [Altered State 1-7 - Jieux - Same State 1] (puzzle: Same State 1)
Out: Satisfied

In: For this sequence, is measured apparent KD of MS2 coat protein 100 nM or higher? GGGUGUGGAAGGAAAGACAGGGAAAGGAAACAUGAGGAUCACCCAUGUGAAGGAAGAAAGGGAGCUCGUCUUAUAAG [JR_SHM208A_Sub002] (puzzle: Sensor for hsa-mir-208a)
Out: Not satisfied

In: For this sequence, is measured apparent KD of MS2 coat protein 100 nM or higher? UUUAAACAUGAGGAUCACCCAUGUUUUUUCAUGGGAGGAUAUCUGAGUUAAUUAUAUUAAGGAGAAGGCCUAUUUU [× ×•×ª×• ×ž×“×™× ×” × ×—×ª-01] (puzzle: Same State 1)
Out: Not satisfied
